# testSystem: T1, recombinant antigen of the extracellular region of CD47 (Sino Biological, Cat: 12283-H08H) (human, UniProt Q08722 19-139)
# T1 construct: extracellular domain; also called recombinant CD47 extracellular region; CD47 recombinant protein
# T1 sequence (Q08722 19-139 limits assumed): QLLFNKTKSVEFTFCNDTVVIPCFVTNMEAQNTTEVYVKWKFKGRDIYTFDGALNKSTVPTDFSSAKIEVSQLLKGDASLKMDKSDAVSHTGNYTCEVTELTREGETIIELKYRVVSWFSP
# testMethodNotes: Fortebio BLI, antibody on AHC sensor, CD47 extracellular region 100 nM;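 also: antibody held on the sensor through anti-human Fc capture, CD47 antigen in solution, association and dissociation phases each lasting 300 s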
Parameter: koff. Scope: all listed entries.
The reply should contain only the number, in s⁻¹.

Solved entries (count: 3):
binder	valueUnit	koff
hz140-Hm7/hz182-L (antibody, V domains shown) VH: QVQLVQSGAEVKKPGASVKVSCKASGYKFTNYVMHWVRQAPGQRLEWMGYINPYNDGIKYNEKFQGRVTITRDTSASTAYMELSSLRSEDTAVYYCAREGDFYANYGRLGFAYWGQGTLVTVSS VL: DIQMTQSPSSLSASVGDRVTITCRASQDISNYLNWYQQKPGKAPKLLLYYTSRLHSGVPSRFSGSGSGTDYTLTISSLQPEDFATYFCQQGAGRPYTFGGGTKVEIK	s⁻¹	0.00767
hz140-Hm11/hz182-L (antibody, V domains shown) VH: QVQLVQSGAEVKKPGASVKVSCKASGYKFTNYVMSWVRQAPGQRLEWMGYINPYNDAIKYNEKFTGRVTITRDTSASTAYMELSSLRSEDTAVYYCAREGDFYANYGRLGFAYWGQGTLVTVSS VL: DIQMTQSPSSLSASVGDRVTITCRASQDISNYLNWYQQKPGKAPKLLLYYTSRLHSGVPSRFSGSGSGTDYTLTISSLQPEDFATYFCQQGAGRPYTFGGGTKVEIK	s⁻¹	0.0017
hz140-Hm3/hz182-L (antibody, V domains shown) VH: QVQLVQSGAEVKKPGASVKVSCKASGYKFTNYAMHWVRQAPGQRLEWMGYINPYNDGIKYNEKFTGRVTITRDTSASTAYMELSSLRSEDTAVYYCAREGDFYANYGRLGFAYWGQGTLVTVSS VL: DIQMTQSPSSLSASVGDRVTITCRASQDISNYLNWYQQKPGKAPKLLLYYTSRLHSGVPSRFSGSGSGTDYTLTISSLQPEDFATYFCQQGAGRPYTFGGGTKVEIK	s⁻¹	0.00308

Exercise: Recall and state the measured koff for hz140-Hm5/hz182-L (antibody, V domains shown) VH: QVQLVQSGAEVKKPGASVKVSCKASGYKFTNYVMHWVRQAPGQRLEWMGWINPYNDGIKYNEKFTGRVTITRDTSASTAYMELSSLRSEDTAVYYCAREGDFYANYGRLGFAYWGQGTLVTVSS VL: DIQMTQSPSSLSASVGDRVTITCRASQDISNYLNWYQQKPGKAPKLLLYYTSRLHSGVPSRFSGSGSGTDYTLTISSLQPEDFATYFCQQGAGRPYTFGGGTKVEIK .
Solution: 0.00103

Exercise: Recall and state the measured koff for hz140-Hm8/hz182-L (antibody, V domains shown) VH: QVQLVQSGAEVKKPGASVKVSCKASGYKFTNYVMHWVRQAPGQRLEWMGYINPYNDGIKYNEKFTGRVTITRDTSASTAYMELSSLRSEDTAVYYCAREGDFYANYGRLGFDYWGQGTLVTVSS VL: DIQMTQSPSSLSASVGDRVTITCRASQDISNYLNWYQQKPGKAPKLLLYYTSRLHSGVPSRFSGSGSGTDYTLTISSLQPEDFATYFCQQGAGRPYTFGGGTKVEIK .
Solution: 0.00907

Exercise: Recall and state the measured koff for hz140-Hm12/hz182-L (antibody, V domains shown) VH: QVQLVQSGAEVKKPGASVKVSCKASGYTFTNYVMSWVRQAPGQRLEWMGYINPYNDAIKYNEKFTGRVTITRDTSASTAYMELSSLRSEDTAVYYCAREGDFYANYGRLGFAYWGQGTLVTVSS VL: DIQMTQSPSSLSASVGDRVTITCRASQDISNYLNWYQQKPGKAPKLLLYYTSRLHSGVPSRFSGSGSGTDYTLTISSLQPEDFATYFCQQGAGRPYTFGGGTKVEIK .
Solution: 0.00328
